These records show RAC app for Estrogen receptor (Ovis aries) (UniProt P49885+Q9TU15).
readout_label: RAC app

Some solved entries appear below for comparison.
Exam item: Requested field: RAC app. Item: C[C@]12CC[C@@H]3c4ccc(O)cc4CC[C@H]3[C@@H]1CC[C@@]2(O)CCCNC(=O)CBr
Marked response: 0.019

Exam item: Requested field: RAC app. Item: CC(=O)NCCC[C@]1(O)CC[C@H]2[C@@H]3CCc4cc(O)ccc4[C@H]3CC[C@@]21C
Marked response: 0.0084

Exam item: Requested field: RAC app. Item: C[C@]12CC[C@@H]3c4ccc(O)cc4CC[C@H]3[C@@H]1CC[C@@]2(O)CCOS(C)(=O)=O
Marked response: 0.15

Exam item: Requested field: RAC app. Item: C[C@]12CC[C@@H]3c4ccc(O)cc4CCC3[C@@H]1CC[C@@]2(O)CNC(=O)CBr (single isomer, unassigned)
Marked response: 0.0076

1 = C[C@]12CC[C@@H]3c4ccc(O)cc4CC[C@H]3[C@@H]1CC[C@@]2(O)CCCNC(=O)CI
2 = C[C@]12CC[C@@H]3c4ccc(O)cc4CC[C@H]3[C@@H]1CC[C@@]2(O)CCNC(=O)CBr
Exam item: Select the item with the higher value of RAC app from the options 1 and 2 listed. Reply briefly: the label of your chosen item.
Marked response: 2

* * *

target: Estrogen receptor (Ovis aries) (UniProt P49885+Q9TU15); assay: Relative efficiency(RE) in irreversible inhibition of lamb uterine estrogen receptor relative to iodoacetamide 23
readout_label: RE

P = C[C@]12CC[C@@H]3c4ccc(O)cc4CCC3[C@@H]1CC[C@@]2(O)CNC(=O)CBr (single isomer, unassigned)
Q = C[C@]12CC[C@@H]3c4ccc(O)cc4CC[C@H]3[C@@H]1CC[C@@]2(O)CCNC(=O)CBr
R = C[C@]12CC[C@@H]3c4ccc(O)cc4CC[C@H]3[C@@H]1CC[C@@]2(O)CCCNC(=O)CI
S = C[C@]12CC[C@@H]3c4ccc(O)cc4CC[C@H]3[C@@H]1CC[C@@]2(O)CCCNC(=O)CBr
Exam item: Sort the items above on RE, descending. // list labels; follow requested order
Marked response: R, S, Q, P
(R: 1, S: 0.34, Q: 0.011, P: 0.0019)

* * *

target: Estrogen receptor (Ovis aries) (UniProt P49885+Q9TU15); test: Irreversible inhibition of [3H]estradiol binding to lamb uterine estrogen receptor; type: protein assay
Activity calls are given as the source filed them. The calls are words filed in the database; no cut-off is given here.
Hi! Could you answer with just one of these? active, inactive

Exam item: Which result was noted for this compound in the test: C[C@]12CC[C@@H]3c4ccc(O)cc4CC[C@H]3[C@@H]1CC[C@@]2(O)CCCNC(=O)CBr
Marked response: active

Exam item: Which result was noted for this compound in the test: C[C@]12CC[C@@H]3c4ccc(O)cc4CC[C@H]3[C@@H]1CC[C@@]2(O)CCNC(=O)CBr
Marked response: active

Exam item: Which result was noted for this compound in the test: C[C@]12CC[C@@H]3c4ccc(O)cc4CC[C@H]3[C@@H]1CC[C@@]2(O)CCCNC(=O)CI
Marked response: active

Exam item: Which result was noted for this compound in the test: CC(=O)NCCC[C@]1(O)CC[C@H]2[C@@H]3CCc4cc(O)ccc4[C@H]3CC[C@@]21C
Marked response: inactive

Exam item: Which result was noted for this compound in the test: C[C@]12CC[C@@H]3c4ccc(O)cc4CCC3[C@@H]1CC[C@@]2(O)CNC(=O)CBr (single isomer, unassigned)
Marked response: active

Now look at this entry.
Exam item: Which result was noted for this compound in the test: C[C@]12CC[C@@H]3c4ccc(O)cc4CC[C@H]3[C@@H]1CC[C@@]2(O)CCOS(C)(=O)=O
Marked response: inactive

Attribution: ChEMBL document CHEMBL1128414
